Where do these numbers come from? They come from ChEMBL document CHEMBL4152374.

- system under test: UniProt P11388
- Sequence (P11388 whole entry): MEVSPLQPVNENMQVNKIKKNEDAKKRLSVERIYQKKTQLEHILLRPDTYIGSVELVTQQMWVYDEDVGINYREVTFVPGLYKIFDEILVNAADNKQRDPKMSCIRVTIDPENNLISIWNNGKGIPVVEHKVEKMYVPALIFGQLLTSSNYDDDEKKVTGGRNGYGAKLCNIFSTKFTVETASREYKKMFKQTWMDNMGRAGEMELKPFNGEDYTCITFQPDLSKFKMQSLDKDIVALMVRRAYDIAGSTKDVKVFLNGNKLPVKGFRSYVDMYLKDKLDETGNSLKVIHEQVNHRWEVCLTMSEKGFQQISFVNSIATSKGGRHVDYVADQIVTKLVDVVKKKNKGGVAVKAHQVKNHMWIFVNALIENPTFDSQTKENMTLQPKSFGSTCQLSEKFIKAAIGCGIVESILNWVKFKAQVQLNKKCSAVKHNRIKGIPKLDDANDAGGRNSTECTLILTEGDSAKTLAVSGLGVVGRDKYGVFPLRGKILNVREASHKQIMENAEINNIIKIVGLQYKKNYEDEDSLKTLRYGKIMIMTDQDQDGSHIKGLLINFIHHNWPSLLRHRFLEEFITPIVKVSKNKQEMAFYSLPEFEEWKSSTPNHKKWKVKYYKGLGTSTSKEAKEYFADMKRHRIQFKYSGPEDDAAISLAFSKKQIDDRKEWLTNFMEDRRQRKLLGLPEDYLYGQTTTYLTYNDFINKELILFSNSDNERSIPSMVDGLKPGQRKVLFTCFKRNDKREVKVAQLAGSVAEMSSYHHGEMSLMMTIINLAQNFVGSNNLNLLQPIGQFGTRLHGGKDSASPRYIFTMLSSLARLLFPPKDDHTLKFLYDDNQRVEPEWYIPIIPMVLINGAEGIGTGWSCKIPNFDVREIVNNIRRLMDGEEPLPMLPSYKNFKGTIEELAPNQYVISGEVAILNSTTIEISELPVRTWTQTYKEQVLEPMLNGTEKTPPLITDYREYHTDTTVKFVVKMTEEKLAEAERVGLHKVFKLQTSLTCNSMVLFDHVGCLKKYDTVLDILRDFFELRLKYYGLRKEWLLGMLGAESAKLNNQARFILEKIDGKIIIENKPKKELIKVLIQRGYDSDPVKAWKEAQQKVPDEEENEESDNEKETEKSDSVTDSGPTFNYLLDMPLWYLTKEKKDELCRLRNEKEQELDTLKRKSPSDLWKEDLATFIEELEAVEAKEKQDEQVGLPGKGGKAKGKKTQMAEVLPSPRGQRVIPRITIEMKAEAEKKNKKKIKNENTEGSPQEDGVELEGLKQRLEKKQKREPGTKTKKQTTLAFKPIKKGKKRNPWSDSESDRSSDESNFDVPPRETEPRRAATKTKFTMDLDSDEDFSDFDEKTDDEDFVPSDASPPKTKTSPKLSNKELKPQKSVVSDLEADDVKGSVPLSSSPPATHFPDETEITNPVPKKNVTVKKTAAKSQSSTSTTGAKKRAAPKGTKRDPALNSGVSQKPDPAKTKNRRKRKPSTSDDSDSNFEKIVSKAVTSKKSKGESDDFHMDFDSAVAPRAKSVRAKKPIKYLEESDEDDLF
- method notes: Inhibition of human topoisomerase 2-alpha using supercoiled pBR322 plasmid DNA as substrate at 20 uM after 30 mins by agarose gel electrophoresis method relative to control
measured attribute: inhibition (%)

{"columns": ["compound", "system under test", "reading unit", "inhibition"],
 "data": [
  ["O=C1c2ccccc2-c2nc(-c3ccc(O)cc3)cc(-c3cccc(O)c3)c21", "UniProt P11388", "%", 60.5]
]}

a: O=C1c2ccccc2-c2nc(-c3ccccc3)cc(-c3ccc(O)cc3)c21
b: Oc1cccc(-c2cc(-c3ccccc3)c3c(n2)-c2ccccc2C3O)c1 (stereo not drawn)
Query: Which has the smaller recorded inhibition, a or b ? When you have decided, please share the label of that item.
Result: b

====

- Tested on: T47D
- method notes: Antiproliferative activity against human T47D cells after 72 hrs by EZ-CYTOX reagent based assay
- Format: functional, cell-based
measured attribute: IC50 (nM)
The answer is to be given in nM; state only the numeric part.

{"columns": ["compound", "IC50 / nM"],
 "data": [
  ["O=C1c2ccccc2-c2nc(-c3ccccc3)cc(-c3ccccc3O)c21", 1330],
  ["O=C1c2ccccc2-c2nc(-c3ccc(O)cc3)cc(-c3ccccc3)c21", 1400],
  ["Oc1ccc(-c2cc(-c3ccccc3)nc3c2C(O)c2ccccc2-3)cc1 (centres undefined)", 3250],
  ["COc1cc([C@@H]2c3cc4c(cc3[C@@H](O[C@@H]3O[C@@H]5CO[C@@H](C)O[C@H]5[C@H](O)[C@H]3O)[C@H]3COC(=O)[C@H]23)OCO4)cc(OC)c1O [ETOPOSIDE]", 400],
  ["O=C1c2ccccc2-c2nc(-c3ccc(O)cc3)cc(-c3ccc(O)cc3)c21", 370],
  ["O=C1c2ccccc2-c2nc(-c3ccccc3)cc(-c3cccc(O)c3)c21", 1180]
]}

We next turn to a different compound, shown below.
The reported IC50 of the compound O=C1c2ccccc2-c2nc(-c3cccc(O)c3)cc(-c3ccc(O)cc3)c21 was 1540

====

- system under test: DNA topoisomerase 1 (Homo sapiens)
- method notes: Inhibition of human topoisomerase 1 using supercoiled pBR322 plasmid DNA as substrate at 20 uM after 30 mins by agarose gel electrophoresis method relative to control
measured attribute: inhibition (%)

Take a look at these entries with their results.
{"columns": ["compound", "reading unit", "inhibition"],
 "data": [
  ["O=C1c2ccccc2-c2nc(-c3ccc(O)cc3)cc(-c3cccc(O)c3)c21", "%", 7.5],
  ["OC1c2ccccc2-c2nc(-c3ccccc3)cc(-c3ccccc3)c21 (configuration not stated)", "%", 0],
  ["Oc1ccc(-c2cc(-c3ccccc3)nc3c2C(O)c2ccccc2-3)cc1 (configuration not stated)", "%", 0],
  ["O=C1c2ccccc2-c2nc(-c3ccc(O)cc3)cc(-c3ccccc3O)c21", "%", 0],
  ["Oc1ccc(-c2cc(-c3cccc(O)c3)c3c(n2)-c2ccccc2C3O)cc1 (configuration not stated)", "%", 61.7]
]}

a: O=C1c2ccccc2-c2nc(-c3ccccc3)cc(-c3ccc(O)cc3)c21
b: O=C1c2ccccc2-c2nc(-c3cccc(O)c3)cc(-c3ccc(O)cc3)c21
Query: Lab note: record which item had the higher inhibition, a or b . When you have decided, please share the label of that item.
Result: b
(b: 35.4%, a: 0%)
